- measurement_target: CBP (Homo sapiens (Human))
- test_method_notes: In vitro CBP inhibition (AlphaScreen, biotinylated H4-tetraacetyl peptide)
- Format: binding
- test_parameters: AlphaScreen, Table 29; read-out: CBP IC50
IC50 overview

Illustrative cases are given below, each with its answer.
Fill in: IC50 of `Cn1cc(-c2cnn(Cc3ccccc3)c2)c2ccccc2c1=O` is ___
< 500 nM

Fill in: IC50 of `CN(C)c1ncc(-c2cc(=O)n(C)cc2-c2cnn(-c3cccc(Cl)c3C#N)c2)cn1` is ___
< 500 nM

Fill in: IC50 of `CCc1ccc(-c2cc(=O)n(C)cc2-c2cnn(-c3cccc(F)c3C#N)c2)cn1` is ___
< 500 nM

Fill in: IC50 of `CCOc1cc(=O)n(C)cc1-c1cnn(-c2cc(OC)ccc2C(=O)O)c1` is ___
< 500 nM

Fill in: IC50 of `COc1cc(-c2cc(=O)n(C)cc2-c2cnn(-c3cccc(Cl)c3C#N)c2)ccc1C` is ___
< 500 nM

Fill in: IC50 of `Cc1cc(-c2cc(=O)n(C)cc2-c2cnn(-c3ccccc3C#N)c2)c[nH]c1=O` is ___
< 500 nM

More entries:
Fill in: IC50 of `COCCNc1ncc(-c2cc(=O)n(C)cc2-c2cnn(-c3ccccc3C#N)c2)cn1` is ___
< 500 nM

Fill in: IC50 of `CCOc1cc(=O)n(C)cc1-c1cnn(-c2ccccn2)c1` is ___
< 500 nM

Fill in: IC50 of `Cn1cc(-c2cc(=O)n(C)cc2-c2cnn(Cc3ccccc3)c2)cn1` is ___
< 500 nM

Fill in: IC50 of Cc1cc(-c2cnn(C(C)c3ccccc3)c2C)cn(C)c1=O (stereo not drawn) is ___
< 500 nM

Fill in: IC50 of `Cn1cc(-c2cnn(-c3ccccc3-c3nnn[nH]3)c2)c(C2CC2)cc1=O` is ___
< 500 nM

----------
- measurement_target: CBP (Homo sapiens (Human))
- test_method_notes: In vitro CBP inhibition (AlphaScreen, biotinylated H4-tetraacetyl peptide)
- Format: binding
- test_parameters: AlphaScreen, Table 29; read-out: CBP IC50
pIC50: −log10 of the molar value.
assay_readout: pIC50

Fill in: pIC50 of CNc1ncc(-c2cc(=O)n(C)cc2-c2cnn(C(C)c3ccccc3)c2)cn1 (stereo not drawn) [Example 309] is ___
> 6.30

Fill in: pIC50 of CN(C)c1ccc(-c2cc(=O)n(C)cc2-c2cnn(-c3cccc(F)c3C#N)c2)cn1 [Example 347] is ___
> 6.30

More entries:
Fill in: pIC50 of Cn1cc(-c2cnn(Cc3ccccc3)c2)c(-c2cnn(CC(C)(C)O)c2)cc1=O [Example 161] is ___
> 6.30

Fill in: pIC50 of Cn1cc(-c2cc(=O)n(C)cc2-c2cnn(-c3ccccc3C(=O)O)c2)cn1 [Example 208] is ___
> 6.30

Fill in: pIC50 of Cn1cc(-c2cnn(Cc3ccccc3)c2)c(-n2cccn2)cc1=O [Example 66] is ___
5.30 to 6.30

Fill in: pIC50 of Cn1cc(-c2cn[nH]c2)c(-c2ccccc2)cc1=O [Example 133] is ___
> 6.30

Fill in: pIC50 of CCOc1cc(=O)n(C)cc1-c1cnn(-c2ccccc2C(N)=O)c1 [Example 282] is ___
> 6.30

Fill in: pIC50 of Cc1ccc(-c2cc(=O)n(C)cc2-c2cnn(Cc3ccccc3)c2)cc1 [Example 112] is ___
> 6.30

Fill in: pIC50 of CC1CN(c2cc(=O)n(C)cc2-c2cnn(C(C)c3ccccc3)c2)C1 (stereo not drawn) [Example 54] is ___
> 6.30

----------
IC50 overview
- measurement_target: CBP (Homo sapiens (Human), UniProt Q92793)
- Sequence (Q92793 1081-1197): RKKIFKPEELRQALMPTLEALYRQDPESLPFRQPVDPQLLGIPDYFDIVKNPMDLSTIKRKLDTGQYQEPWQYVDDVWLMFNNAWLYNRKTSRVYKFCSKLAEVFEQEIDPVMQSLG
- test_method_notes: In vitro CBP inhibition (AlphaScreen, biotinylated H4-tetraacetyl peptide)
- Format: binding
- test_parameters: AlphaScreen, Table 29; read-out: CBP IC50

Fill in: IC50 of CC(C)c1ccc(-c2cc(=O)n(C)cc2-c2cnn(-c3cccc(F)c3C#N)c2)cn1 [Example 375] is ___
< 0.5 µM

Next compound, please.
Fill in: IC50 of CC(c1cccc(C#N)c1)n1cc(-c2ccc(=O)n(C)c2)cn1 (centres unmarked) [Example 16] is ___
0.5 to 5 µM

----------
IC50 overview
- measurement_target: CBP (Homo sapiens (Human), UniProt Q92793)
- test_method_notes: In vitro CBP inhibition (AlphaScreen, biotinylated H4-tetraacetyl peptide)
- Format: binding
- test_parameters: AlphaScreen, Table 29; read-out: CBP IC50

Fill in: IC50 of `CCCn1ccc(-c2cc(=O)n(C)cc2-c2cnn(-c3cccc(C4CC4)c3C#N)c2)cc1=O` is ___
< 500 nM

Fill in: IC50 of `COc1ccc(-c2cc(=O)n(C)cc2-c2cnn(-c3ccccc3F)c2)cn1` is ___
< 500 nM

More entries:
Fill in: IC50 of Cc1cc(-c2cnn(C(C)c3ccccc3)c2)cn(C)c1=O (stereo not drawn) is ___
< 500 nM

Fill in: IC50 of `Cn1cc(-c2cn(C)c(=O)cc2C2CCCC2)cn1` is ___
500 to 5000 nM

Fill in: IC50 of `Cn1cc(-c2cnn(Cc3ccccc3)c2)c(-n2ccnc2)cc1=O` is ___
< 500 nM

Fill in: IC50 of `Cn1ccc(-c2cc(=O)n(C)cc2-c2cnn(Cc3ccccc3)c2)n1` is ___
500 to 5000 nM

Fill in: IC50 of `CCc1ccc(-c2cc(=O)n(C)cc2-c2cnn(-c3cccc(Cl)c3C#N)c2)cn1` is ___
< 500 nM

Fill in: IC50 of `Cn1cc(-c2cn(C)c(=O)cc2-c2ccccc2)cn1` is ___
< 500 nM

Fill in: IC50 of `Cn1cc(-c2cnn(Cc3ccccc3)c2)c(-n2ccc(C(=O)O)c2)cc1=O` is ___
< 500 nM

----------
- measurement_target: CBP (Homo sapiens (Human), UniProt Q92793)
- test_method_notes: In vitro CBP inhibition (AlphaScreen, biotinylated H4-tetraacetyl peptide)
- Type: binding
- test_parameters: AlphaScreen, Table 29; read-out: CBP IC50
- Description: The CBP-inhibitory activity of the compounds described herein was determined by calculating the IC50. […] CBP binding and inhibition is assessed by monitoring the interaction of biotinylated H4-tetraacetyl peptide (AnaSpec, H4K5/8/12/16(Ac), biotin-labeled) with the target using the AlphaScreen technology (Perkin Elmer). […] The ability of the compounds disclosed herein to inhibit CBP activity was quantified and the respective IC50 value determined.
pIC50: −log10 of the molar value.
pIC50 overview

Illustrative cases are given below, each with its answer.
Fill in: pIC50 of Cn1cc(-c2cnn(-c3cccc(C4CC4)c3C#N)c2)c(-c2ccc(OCCF)nc2)cc1=O [Example 387] is ___
> 6.30

Fill in: pIC50 of CCOc1cc(=O)n(C)cc1-c1cnn(Cc2ccc(C(C)C)cc2)c1 [Example 101] is ___
> 6.30

Fill in: pIC50 of Cc1cc(-c2cnn(C(C)c3cccc(C(F)F)c3)c2)cn(C)c1=O (stereo not drawn) [Example 11] is ___
> 6.30

Fill in: pIC50 of CC(C)n1cc(-c2cn(C)c(=O)cc2-c2ccccc2)cn1 [Example 138] is ___
> 6.30

Fill in: pIC50 of CCc1cc(-c2cnn(-c3ccccc3C(=O)O)c2)cn(C)c1=O [Example 257] is ___
5.30 to 6.30

More entries:
Fill in: pIC50 of Cn1cc(-c2cnn(Cc3ccccn3)c2)ccc1=O [Example 5] is ___
5.30 to 6.30

Fill in: pIC50 of Cn1cc(-c2cnn(CCN3CCOCC3)c2)c(-c2ccccc2)cc1=O [Example 130] is ___
> 6.30

Fill in: pIC50 of Cn1cc(-c2cnn(-c3cccc(Cl)c3C#N)c2)c(-c2ccc(N3CCCC3)nc2)cc1=O [Example 349] is ___
> 6.30

Fill in: pIC50 of CC(C)COc1ccc(-c2cc(=O)n(C)cc2-c2cnn(-c3ccccc3C(=O)O)c2)cn1 [Example 232] is ___
> 6.30

Fill in: pIC50 of Cn1cc(-c2coc(-c3ccccc3)n2)c(-c2ccccc2)cc1=O [Example 396] is ___
> 6.30

Fill in: pIC50 of Cn1ccc(-c2cc(=O)n(C)cc2-c2cnn(-c3ccccc3C(=O)NC#N)c2)cc1=O [Example 293] is ___
> 6.30

Fill in: pIC50 of CCNc1ncc(-c2cc(=O)n(C)cc2-c2cnn(-c3cccc(Cl)c3C#N)c2)cn1 [Example 325] is ___
> 6.30

Fill in: pIC50 of Cn1cc(-c2cnn(Cc3ccccc3)c2)c(N2CC[C@H](C(=O)O)C2)cc1=O [Example 75] is ___
> 6.30

Fill in: pIC50 of Cn1cc(-c2cnn(Cc3ccccc3)c2)c(-c2ccncc2)cc1=O [Example 124] is ___
> 6.30

Fill in: pIC50 of Cn1cc(-c2cnn(-c3cccc(Cl)c3C#N)c2)c(-c2ccc(OCC3CC3)nc2)cc1=O [Example 357] is ___
> 6.30

Fill in: pIC50 of CC(c1cccc(Cl)c1)n1cc(-c2ccc(=O)n(C)c2)cn1 (stereo not drawn) [Example 23] is ___
> 6.30

Fill in: pIC50 of Cn1cc(-c2cnn(-c3cccc(C4CC4)c3C#N)c2)c(-c2ccn(CCF)c(=O)c2)cc1=O [Example 389] is ___
> 6.30

Fill in: pIC50 of CC(c1ccccc1)n1cc(-c2cc(C3CC3)c(=O)n(C)c2)cn1 (stereo not drawn) [Example 197] is ___
< 5.30
